src = patent US20240197738A1

Target: His-tagged OTUD7A OTU domain (aa183-449) (Homo sapiens, UniProt Q8TE49)
Sequence (Q8TE49 183-449): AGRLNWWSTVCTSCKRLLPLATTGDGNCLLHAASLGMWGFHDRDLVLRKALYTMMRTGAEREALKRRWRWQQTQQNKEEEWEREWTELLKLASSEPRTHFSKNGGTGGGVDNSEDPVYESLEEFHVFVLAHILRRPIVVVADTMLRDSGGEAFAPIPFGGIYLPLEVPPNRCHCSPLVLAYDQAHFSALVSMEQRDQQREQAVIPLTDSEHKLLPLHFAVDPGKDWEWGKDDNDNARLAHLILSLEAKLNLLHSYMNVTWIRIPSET
Outcome measure: Kd

// query Kd value for entry Cn1nccc1-c1cc(-c2ccnn2C)n2nc(C(=O)Nc3cnn(Cc4c(Cl)cccc4Cl)c3)cc2n1 [7Ai] ~1100 nM
